biological target: Follicle Stimulating Hormone Receptor (FSHR) (Homo sapiens); construct: HA (N); assay: HTRF cAMP agonist assay, FSHR, transiently transfected CHO-K1 cells; conditions: CHO-K1 cells transiently expressing human FSHR, read-out: IC50 FSHR LANCE CAMP
Sequence (P23945 18-695): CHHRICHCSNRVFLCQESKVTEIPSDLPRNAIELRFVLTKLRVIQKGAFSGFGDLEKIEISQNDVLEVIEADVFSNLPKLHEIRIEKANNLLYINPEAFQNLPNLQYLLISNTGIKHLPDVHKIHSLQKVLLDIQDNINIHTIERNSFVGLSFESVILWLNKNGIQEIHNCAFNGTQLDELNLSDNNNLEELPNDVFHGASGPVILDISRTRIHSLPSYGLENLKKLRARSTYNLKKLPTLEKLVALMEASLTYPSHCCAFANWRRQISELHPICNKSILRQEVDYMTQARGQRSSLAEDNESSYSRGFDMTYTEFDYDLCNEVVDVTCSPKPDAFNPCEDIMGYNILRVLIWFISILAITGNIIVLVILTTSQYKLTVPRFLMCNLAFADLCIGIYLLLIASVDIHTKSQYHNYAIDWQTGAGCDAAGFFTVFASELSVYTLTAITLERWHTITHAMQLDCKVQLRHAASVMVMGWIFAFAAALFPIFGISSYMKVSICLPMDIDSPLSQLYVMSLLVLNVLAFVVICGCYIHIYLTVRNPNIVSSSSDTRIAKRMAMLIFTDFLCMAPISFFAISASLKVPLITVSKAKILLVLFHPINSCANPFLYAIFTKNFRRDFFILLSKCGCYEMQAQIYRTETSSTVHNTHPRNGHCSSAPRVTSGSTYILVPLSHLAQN
measured.parameter: IC50 (nM)

A. COc1cc2c(cc1-c1cncc(C(N)=O)c1)-c1c(c(C(=O)N3CCN(C)C(=O)C3(C)C)nn1-c1cc(Cl)cc(Cl)c1)CC2
B. COc1cc2c(cc1-c1cncc(C(N)=O)c1)-c1c(c(C(=O)N3CC4CCC3CN4)nn1-c1cc(Cl)cc(Cl)c1)CC2 (stereo not drawn)
C. COC(=O)c1cc(OC)nc(-c2cc3c(cc2OC)CCc2c(C(=O)N(C)C(C)(C)C)nn(-c4cc(Cl)cc(Cl)c4)c2-3)c1 [Compound 11-01A]
Incoming: Order the above molecules by increasing IC50. Answer by naming the labels in the order asked.
Outgoing: C, A, B
(C: 50.1 nM, A: 82.2 nM, B: 524 nM)
